method.notes: Cmax in Sprague-Dawley rat at 1 mg/kg, po after 1 hr
Format: ADME, organism-based
Parameters: dose 1 mg/kg, route oral
assay.conditions: in vivo
endpoint.name: Cmax
The reply must contain the numeric value and, after it, the unit.

### Prompt // returns reported Cmax for input Cc1cc(F)ccc1N1CCN(C(=O)N[C@@H](C(=O)Nc2cc(CN(C)C)ccc2OC(F)(F)F)[C@@H](C)c2c[nH]c3ccccc23)CC1=O
### Response 10.3 ng/mL

====

target: Somatostatin receptor type 3 (Homo sapiens)
Sequence (P32745 whole entry): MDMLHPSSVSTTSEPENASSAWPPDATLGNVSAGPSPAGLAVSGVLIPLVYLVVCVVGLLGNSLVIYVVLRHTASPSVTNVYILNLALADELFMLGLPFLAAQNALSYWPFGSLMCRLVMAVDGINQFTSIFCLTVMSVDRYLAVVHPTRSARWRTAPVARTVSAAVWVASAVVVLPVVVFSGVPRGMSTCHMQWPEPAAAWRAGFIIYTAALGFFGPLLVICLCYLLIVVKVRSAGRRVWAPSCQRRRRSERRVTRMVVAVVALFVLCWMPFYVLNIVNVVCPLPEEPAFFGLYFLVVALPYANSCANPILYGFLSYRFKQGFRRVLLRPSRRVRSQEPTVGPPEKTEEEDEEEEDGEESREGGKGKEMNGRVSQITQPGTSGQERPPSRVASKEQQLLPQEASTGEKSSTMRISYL
method.notes: Displacement of [125I]somatostatin-14 (Tyr11) from human SSTR3 expressed in CHO dhfr cell membranes after 60 mins by TopCount scintillation counting method
endpoint.name: pIC50
pIC50 (log units): -log10 of the concentration in mol/L.

### Prompt Recorded pIC50 for Cc1cc(F)ccc1N1CCN(C(=O)N[C@@H](C(=O)Nc2cc(CN(C)C)ccc2OC(F)(F)F)[C@@H](C)c2c[nH]c3ccccc23)CC1=O , please?
### Response 6.44
